- Tested System: EF2K (Homo sapiens)
- Construct: host or cells: LN-229 cell lysate
- Sequence (O00418 1-725): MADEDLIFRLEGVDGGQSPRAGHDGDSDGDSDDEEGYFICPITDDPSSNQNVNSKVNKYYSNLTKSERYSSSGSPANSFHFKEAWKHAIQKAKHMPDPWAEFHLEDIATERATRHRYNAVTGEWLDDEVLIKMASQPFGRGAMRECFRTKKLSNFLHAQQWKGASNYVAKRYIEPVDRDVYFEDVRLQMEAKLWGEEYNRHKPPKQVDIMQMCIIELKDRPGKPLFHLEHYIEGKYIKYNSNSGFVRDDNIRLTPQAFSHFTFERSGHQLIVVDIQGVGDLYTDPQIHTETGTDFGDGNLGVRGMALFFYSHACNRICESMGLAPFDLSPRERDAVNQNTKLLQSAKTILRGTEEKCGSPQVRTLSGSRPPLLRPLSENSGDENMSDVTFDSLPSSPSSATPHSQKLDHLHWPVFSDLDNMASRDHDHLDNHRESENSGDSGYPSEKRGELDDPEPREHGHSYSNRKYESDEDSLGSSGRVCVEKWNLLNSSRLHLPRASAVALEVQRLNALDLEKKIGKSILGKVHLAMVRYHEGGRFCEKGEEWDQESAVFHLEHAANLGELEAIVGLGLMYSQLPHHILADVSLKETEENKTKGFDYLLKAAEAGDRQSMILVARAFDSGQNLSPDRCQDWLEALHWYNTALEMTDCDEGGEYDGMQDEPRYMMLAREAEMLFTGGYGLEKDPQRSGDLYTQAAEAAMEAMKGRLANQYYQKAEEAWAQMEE
- Assay Text: Biochemical EF2K lysate-based kinase assay (AlphaLISA p-eEF2 Thr56)
- Applied Conditions: pIC50 = -log IC50 (M), read-out: eEF2K_C_alphalisa pIC50 (converted)
IC50 listing for selected compounds.

Completed entries (count: 3):
* O=C1CN2CCN(CC2)Cc2cccc(c2)Nc2nccc(n2)-c2ccc(nc2)N2CC(O)CC2CCN1 (single isomer, unassigned) [Compound 91] | 1.17e-08 M
* O=C1CN2CCN(CC2)Cc2cccc(c2)Nc2nccc(n2)-c2ccc(nc2)NC(=O)CCN1 | 2.69e-06 M
* CC(C)N1CCCNc2ccc(cn2)-c2ccnc(n2)Nc2cccc(c2)CN2CCN(CC2)CC1=O | 7.24e-06 M

Kindly consider the entry below.
GET /value?item= N#Cc1ccc2cc1CN1CCN(CC1)CC(=O)NCCCNc1ccc(cn1)-c1ccnc(n1)N2 &field=IC50 returns 7.08e-08 M

----------
IC50 listing for selected molecules.
- Tested System: Vps34 (PIK3C3 lipid kinase) (Homo sapiens)
- Assay Text: Biochemical Vps34 lipid kinase assay (ADP-Glo)
- Applied Conditions: serial half-log dilution 10 μM to 0.3 nM; pIC50 = -log IC50 (M)

Completed entries (count: 2):
* N#Cc1ccc2cc1CN1CCN(CC1)CC(=O)NCCCNc1ccc(cn1)-c1ccnc(n1)N2 [Compound 14] | 1.05e-07 M
* CC(C)N1CCNc2ccc(cn2)-c2ccnc(n2)Nc2cccc(c2)CN2CCN(CC2)CC1=O [Compound 21] | 5.01e-07 M

Field IC50 (system: Vps34 (PIK3C3 lipid kinase) (Homo sapiens)) for entry CN1CCCN(C)c2ccc(cn2)-c2ccnc(n2)Nc2cccc(c2)CN2CCN(CC2)CC1=O [Compound 1] = 1.55e-06 M

Field IC50 (system: Vps34 (PIK3C3 lipid kinase) (Homo sapiens)) for entry O=C1NCCCNc2ccc(cn2)-c2ccnc(n2)Nc2cccc(c2)CN2CCN1CC2 [Compound 130] = 2.4e-07 M

----------
- Tested System: EF2K (Homo sapiens, UniProt O00418)
- Construct: host or cells: LN-229 cell lysate
- Assay Text: EF2K cell-based assay (P-EF2 AlphaLISA, 2-deoxyglucose stimulated MCF10A cells)
- Applied Conditions: 2.5 mM 2-deoxyglucose stimulated, P-EF2 Thr56, pIC50 = -log IC50 (M), read-out: eEF2K_C_PThr56 pIC50 (converted)
Readout Type: IC50 (M)
Kindly provide the numeric value in M only, without the unit symbol.

Completed entries (count: 5):
- CC1C(=O)N(C)CCCN(C)c2ccc(cn2)-c2ccnc(n2)Nc2cccc(c2)CN2CCN1CC2 (stereo not drawn): 3.89e-06
- CN1CCCN(C)c2ccc(cn2)-c2ccnc(n2)Nc2cccc(c2)CN2CCNC(CC1=O)C2 (stereo not drawn): 2.63e-05
- O=C1NCCCNc2ccc(cn2)-c2ccnc(n2)Nc2cccc(c2)CN2CCN(CC2)C1CO (stereo not drawn): 5.62e-06
- O=C1CN2CCN(CC2)Cc2cccc(c2)Nc2nccc(n2)-c2ccc(nc2)CN(CC2CCOCC2)CCN1: 3.09e-06
- O=C1CN2CCN(CC2)Cc2cccc(c2)Nc2nccc(n2)-c2ccc(nc2)NCC(O)CN1 (stereo not drawn) [Compound 23]: 2.24e-05

Kindly consider the entry below.
GET /value?item= NC(=O)c1ccc2cc1CN1CCN(CC1)CC(=O)NCCCNc1ccc(cn1)-c1ccnc(n1)N2 &field=IC50 returns 2.75e-05

----------
remaining activity at 1 µM listing for selected compounds.
- Tested System: Vps34 (PIK3C3 lipid kinase) (Homo sapiens, UniProt Q8NEB9)
- Sequence (Q8NEB9 whole entry, species assumed): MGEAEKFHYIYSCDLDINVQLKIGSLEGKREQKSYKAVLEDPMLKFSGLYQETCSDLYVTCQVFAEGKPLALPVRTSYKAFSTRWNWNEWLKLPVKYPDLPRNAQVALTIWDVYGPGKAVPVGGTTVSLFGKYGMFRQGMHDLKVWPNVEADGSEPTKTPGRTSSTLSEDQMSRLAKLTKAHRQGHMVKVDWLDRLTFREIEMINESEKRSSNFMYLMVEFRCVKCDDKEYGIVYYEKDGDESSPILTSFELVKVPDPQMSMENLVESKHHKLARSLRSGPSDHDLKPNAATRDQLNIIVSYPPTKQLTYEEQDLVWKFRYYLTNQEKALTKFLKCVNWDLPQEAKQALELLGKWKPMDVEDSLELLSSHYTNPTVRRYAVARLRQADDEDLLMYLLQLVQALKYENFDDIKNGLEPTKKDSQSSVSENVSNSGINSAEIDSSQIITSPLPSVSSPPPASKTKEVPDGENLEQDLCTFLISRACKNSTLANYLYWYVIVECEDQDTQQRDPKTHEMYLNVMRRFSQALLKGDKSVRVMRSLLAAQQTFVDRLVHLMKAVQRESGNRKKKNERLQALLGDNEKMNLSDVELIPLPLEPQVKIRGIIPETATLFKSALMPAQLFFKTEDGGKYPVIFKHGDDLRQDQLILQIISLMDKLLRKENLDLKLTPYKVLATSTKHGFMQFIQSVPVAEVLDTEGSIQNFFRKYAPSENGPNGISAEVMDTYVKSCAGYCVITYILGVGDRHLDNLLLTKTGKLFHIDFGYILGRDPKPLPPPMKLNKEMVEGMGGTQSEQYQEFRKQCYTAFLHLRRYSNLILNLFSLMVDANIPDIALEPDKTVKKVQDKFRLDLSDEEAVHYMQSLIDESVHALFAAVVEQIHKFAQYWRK
- Assay Text: Biochemical Vps34 lipid kinase assay (ADP-Glo)
- Applied Conditions: 1 h, single dose 1 μM compound; residual activity compared to control (DMSO); read-out: VPS34_1microM_% of cntrl
Kindly provide the numeric value in % only, without the unit symbol.

Completed entries (count: 7):
* O=C1CN2CCCN(CC2)Cc2cccc(c2)Nc2nccc(n2)-c2ccc(nc2)NCCCN1 | 3.19
* CN1CCCN(C)c2ncc(cn2)-c2ccnc(n2)Nc2cccc(c2)CN2CCN(CC2)CC1=O | 30.6
* CC(C)N1CCNc2ccc(cn2)-c2ccnc(n2)Nc2cccc(c2)CN2CCN(CC2)CC1=O | 23.6
* NC(=O)c1ccc2cc1CN1CCN(CC1)CC(=O)NCCCNc1ccc(cn1)-c1ccnc(n1)N2 | 1.07
* CN1CCCN(C)c2ccc(cn2)-c2ccnc(n2)Nc2cccc(c2)CN2CCN(CC2)C(c2ccccc2)C1=O (centres unmarked) | 64.6
* O=C1NCCCNc2ccc(cn2)-c2ccnc(n2)Nc2cccc(c2)CN2CCN(CC2)C1CO (centres unmarked) | 10.8
* NC(=O)C1CN2CCN1CC(=O)NCCCNc1ccc(cn1)-c1ccnc(n1)Nc1cccc(c1)C2 (centres unmarked) | 4.95

Kindly consider the entry below.
GET /value?item= O=C1CN2CCN(CC2)C(=O)c2cccc(c2)Nc2nccc(n2)-c2ccc(nc2)NCCCN1 &field=remaining activity at 1 µM returns 11.7

----------
- Tested System: EF2K (Homo sapiens, UniProt O00418)
- Construct: host or cells: LN-229 cell lysate
- Sequence (O00418 1-725): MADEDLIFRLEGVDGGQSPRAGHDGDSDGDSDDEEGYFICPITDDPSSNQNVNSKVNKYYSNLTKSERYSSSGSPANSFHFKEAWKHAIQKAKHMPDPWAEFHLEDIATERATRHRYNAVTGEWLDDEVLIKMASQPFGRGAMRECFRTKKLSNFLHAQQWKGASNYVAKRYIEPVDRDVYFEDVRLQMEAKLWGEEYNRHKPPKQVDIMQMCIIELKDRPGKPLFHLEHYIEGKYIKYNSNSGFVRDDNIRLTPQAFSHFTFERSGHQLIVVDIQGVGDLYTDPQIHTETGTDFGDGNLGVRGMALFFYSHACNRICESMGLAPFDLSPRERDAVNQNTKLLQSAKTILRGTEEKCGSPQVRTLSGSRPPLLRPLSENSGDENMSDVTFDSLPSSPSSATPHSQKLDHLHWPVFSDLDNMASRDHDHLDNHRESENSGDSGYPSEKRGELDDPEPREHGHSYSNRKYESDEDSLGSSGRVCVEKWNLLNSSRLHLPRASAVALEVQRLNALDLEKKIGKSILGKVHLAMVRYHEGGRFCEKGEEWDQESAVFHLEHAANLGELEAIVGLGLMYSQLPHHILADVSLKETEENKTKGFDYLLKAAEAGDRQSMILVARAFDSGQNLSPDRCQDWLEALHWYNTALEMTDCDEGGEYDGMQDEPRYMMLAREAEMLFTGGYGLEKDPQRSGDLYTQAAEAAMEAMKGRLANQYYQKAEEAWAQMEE
- Assay Text: EF2K cell-based assay (P-EF2 AlphaLISA, 2-deoxyglucose stimulated MCF10A cells)
- Applied Conditions: 2.5 mM 2-deoxyglucose stimulated, P-EF2 Thr56, pIC50 = -log IC50 (M), read-out: eEF2K_C_PThr56 pIC50 (converted)
Readout Type: log10 IC50 (log10 of the value in M)
Response schema: value (number) is log10 of IC50 in units of M.

• O=C1CN2CCN(CC2)Cc2cc(ccc2Cl)Nc2nccc(n2)-c2ccc(nc2)NCCCN1 = -4.84

GET /value?item= C=CCCN1CCNC(=O)CN2CCN(CC2)Cc2cccc(c2)Nc2nccc(n2)-c2ccc(nc2)C1 &field=log10 IC50 returns -6.74

GET /value?item= CC(C)CN1CCNC(=O)CN2CCN(CC2)Cc2cccc(c2)Nc2nccc(n2)-c2ccc(nc2)C1 &field=log10 IC50 returns -6.73

GET /value?item= C=CCN1CCNC(=O)CN2CCN(CC2)Cc2cccc(c2)Nc2nccc(n2)-c2ccc(nc2)C1 &field=log10 IC50 returns -6.66

GET /value?item= O=C1CN2CCCN(CC2)Cc2cccc(c2)Nc2nccc(n2)-c2ccc(nc2)NCCCN1 &field=log10 IC50 returns -5.35

GET /value?item= CC1CN2CCN1CC(=O)NCCCNc1ccc(cn1)-c1ccnc(n1)Nc1cccc(c1)C2 (stereo not shown) [Compound 49] &field=log10 IC50 returns -5.63

GET /value?item= CN1CCCN(C)c2ccc(cn2)-c2ccnc(n2)Nc2cccc(c2)CN2CCN(CC1=O)CC2COCCN1CCOCC1 (stereo not shown) [Compound 98] &field=log10 IC50 returns -4.56

GET /value?item= O=C1CN2CCN(CC2)Cc2cccc(c2)Nc2nccc(n2)-c2ccc(nc2)NCCN1 &field=log10 IC50 returns -5.30
